- assayed target: T1, GFP-9S library array, motif 4 ND N98P;D124Y (synthetic construct, N98P;D124Y)
- T1 chain: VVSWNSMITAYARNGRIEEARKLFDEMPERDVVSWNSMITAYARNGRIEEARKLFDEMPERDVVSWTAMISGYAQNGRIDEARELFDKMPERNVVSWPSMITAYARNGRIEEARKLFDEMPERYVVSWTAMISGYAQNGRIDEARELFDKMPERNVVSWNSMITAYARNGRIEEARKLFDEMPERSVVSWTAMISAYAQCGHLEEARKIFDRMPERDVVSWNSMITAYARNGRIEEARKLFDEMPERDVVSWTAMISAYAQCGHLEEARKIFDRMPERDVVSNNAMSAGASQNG
- experimental protocol: high-throughput RNA pulldown from lysate on Ni-NTA beads; HRP: 50 mM Tris pH 8, 150 mM NaCl, 1 mM beta-mercaptoethanol, 50 ug/ml BSA, 3 ug/ml yeast RNA, 0.5% heparin; ITC and FP: Tris pH 8, 200 mM KCl, 5% glycerol; MST: 50 mM Tris pH 8, 200 mM NaCl, 1 mM DTT, BSA, heparin, 0.05% Tween 20
- test parameters: tags: N-terminal His-eGFP; label: 5' Cy5
value type: Kd
Record the result as number plus unit.

binder | Kd
AUUACACGUGA (ssRNA) [Cy5-rpoA] | 146 nM

Now consider a different binder.
Query Kd for AUUAGACGUGA (ssRNA) [Cy5-rpoA-G]
168 nM
